- Condition summary: in cyclohexane, 308.15 K
Metric name: solubility (mole fraction)
// keep it numeric: no unit symbol after the value

Name the reported solubility (mole fraction) value associated with the molecule Sc1nc2ccccc2[nH]1 1.88e-05

====

- Condition summary: in n-propanol, 313.15 K
Metric name: solubility (mole fraction)
// keep it numeric: no unit symbol after the value

Name the reported solubility (mole fraction) value associated with the compound Sc1nc2ccccc2[nH]1 0.0131

====

- Condition summary: in n-propanol, 318.15 K
Metric name: solubility (mole fraction)
// keep it numeric: no unit symbol after the value

Name the reported solubility (mole fraction) value associated with the compound Sc1nc2ccccc2[nH]1 0.0151

====

- Condition summary: in n-butanol, 318.15 K
Metric name: solubility (mole fraction)
// keep it numeric: no unit symbol after the value

Name the reported solubility (mole fraction) value associated with the compound Sc1nc2ccccc2[nH]1 0.0144

====

- Condition summary: in isopropanol, 288.15 K
Metric name: solubility (mole fraction)
// keep it numeric: no unit symbol after the value

Name the reported solubility (mole fraction) value associated with the compound Sc1nc2ccccc2[nH]1 0.00528

====

- Condition summary: in cyclohexane, 313.15 K
Metric name: solubility (mole fraction)
// keep it numeric: no unit symbol after the value

Name the reported solubility (mole fraction) value associated with the molecule Sc1nc2ccccc2[nH]1 2.27e-05

====

- Condition summary: in ethanol, 283.15 K
Metric name: solubility (mole fraction)

Name the reported solubility (mole fraction) value associated with the compound Sc1nc2ccccc2[nH]1 0.00634

====

- Condition summary: in acetonitrile, 283.15 K
Metric name: solubility (mole fraction)
// keep it numeric: no unit symbol after the value

Name the reported solubility (mole fraction) value associated with the molecule Sc1nc2ccccc2[nH]1 0.00115

====

- Condition summary: in 1,4-dioxane, 303.15 K
Metric name: solubility (mole fraction)
// keep it numeric: no unit symbol after the value

Name the reported solubility (mole fraction) value associated with the molecule Sc1nc2ccccc2[nH]1 0.021

====

- Condition summary: in n-propanol, 293.15 K
Metric name: solubility (mole fraction)
// keep it numeric: no unit symbol after the value

Name the reported solubility (mole fraction) value associated with the compound Sc1nc2ccccc2[nH]1 0.00759

====

- Condition summary: in 2-butanone, 298.15 K
Metric name: solubility (mole fraction)
// keep it numeric: no unit symbol after the value

Name the reported solubility (mole fraction) value associated with the compound Sc1nc2ccccc2[nH]1 0.0133

====

- Condition summary: in 2-butanone, 278.15 K
Metric name: solubility (mole fraction)
// keep it numeric: no unit symbol after the value

Name the reported solubility (mole fraction) value associated with the compound Sc1nc2ccccc2[nH]1 0.0103

====

- Condition summary: in ethyl acetate, 288.15 K
Metric name: solubility (mole fraction)
// keep it numeric: no unit symbol after the value

Name the reported solubility (mole fraction) value associated with the compound Sc1nc2ccccc2[nH]1 0.00275

====

- Condition summary: in methanol, 288.15 K
Metric name: solubility (mole fraction)

Name the reported solubility (mole fraction) value associated with the compound Sc1nc2ccccc2[nH]1 0.00848

====

- Condition summary: in isopropanol, 313.15 K
Metric name: solubility (mole fraction)
// keep it numeric: no unit symbol after the value

Name the reported solubility (mole fraction) value associated with the compound Sc1nc2ccccc2[nH]1 0.0116

====

- Condition summary: in acetonitrile, 318.15 K
Metric name: solubility (mole fraction)
// keep it numeric: no unit symbol after the value

Name the reported solubility (mole fraction) value associated with the molecule Sc1nc2ccccc2[nH]1 0.00257
